EC50 for assorted molecules
- Tested on: H4
- testDescription: Luminescence Cell-Based Dose Response HTS to Identify Activators of 5'UTR Stem-Loop Driven Prion Protein mRNA Translation in H4 Neuroglioblastoma Cells. [Related pubchem assays: 1829 (Project Summary), 1814 (Primary HTS)]
- Assay type: functional
- setupConditions: Homo sapiens
Active and inactive are the calls of the source.

# count of solved cases: 3
Incoming: What value of EC50 has been recorded for this entry: `O=C(Nc1ccc2nc(-c3ccco3)c(-c3ccco3)nc2c1)NC1CC1`
Outgoing: > 120 µM (not active)

Incoming: What value of EC50 has been recorded for this entry: `CCN1CCN(C(=O)c2cc3c(s2)-c2c(C)cccc2OC3)CC1`
Outgoing: 9.85 µM (active)

Incoming: What value of EC50 has been recorded for this entry: `Fc1ccc(/C=N/NC2=Nc3cccc4cccc2c34)cc1`
Outgoing: < 0.1 µM (active)

---
Incoming: What value of EC50 has been recorded for this entry: `CCOC(=O)Nc1ccc2nc(N3CCCCCC3)sc2c1`
Outgoing: > 120 µM (not active)

###

- testDescription: Luminescence Cell-Based Dose Response HTS to Identify Inhibitors of 5'UTR Stem-Loop Driven Prion Protein mRNA Translation in H4 Neuroglioblastoma Cells. [Related pubchem assays: 1827 (Project Summary), 1813 (Primary HTS)]
- Type: functional
The source made the active and inactive calls.
recordedMetric: EC50

Incoming: What value of EC50 has been recorded for this entry: `COc1cc(C(=O)NCC(=O)N/N=C(C)\C=C\c2ccccc2)cc(OC)c1OC`
Outgoing: 24.9 µM (active)

---
Incoming: What value of EC50 has been recorded for this entry: `Cc1c(CCC(C)C)c(O)n2c(nc3ccccc32)c1C#N`
Outgoing: > 120 µM (not active)

Incoming: What value of EC50 has been recorded for this entry: `CCOc1ccc(-c2cc(C(=O)NCCCn3ccnc3)c3cc(Br)ccc3n2)cc1`
Outgoing: > 120 µM (not active)

Incoming: What value of EC50 has been recorded for this entry: `C#Cc1ccc([C@@H]2C=C(C(=O)N3CCN(Cc4ccccc4)CC3)O[C@H](OCCCCO)C2)cc1`
Outgoing: 9.17 µM (active)

Incoming: What value of EC50 has been recorded for this entry: `COc1ccccc1N1CCN(c2nc(C)nc3c2oc2ccccc23)CC1`
Outgoing: 0.842 µM (active)

Incoming: What value of EC50 has been recorded for this entry: `Cc1cccc(C(=O)N[C@H](C(=O)Nc2nc3ccc(S(C)(=O)=O)cc3s2)C(C)C)c1`
Outgoing: > 120 µM (not active)

Incoming: What value of EC50 has been recorded for this entry: `CCOC(=O)c1c(C)[nH]c(C)c1C(=O)Cn1nnc(-c2ccccc2C)n1`
Outgoing: 18.3 µM (active)

###

- experimentalTarget: Eukaryotic translation initiation factor 4E (Mus musculus)
- Sequence (P63073 whole entry): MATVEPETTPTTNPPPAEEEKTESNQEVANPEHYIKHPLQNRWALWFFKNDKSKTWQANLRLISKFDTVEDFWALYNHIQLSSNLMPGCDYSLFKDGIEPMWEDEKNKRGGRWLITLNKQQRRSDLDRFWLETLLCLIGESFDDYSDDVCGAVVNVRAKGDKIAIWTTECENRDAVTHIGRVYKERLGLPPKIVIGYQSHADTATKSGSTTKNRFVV
- testDescription: blockers of eIF4G binding by eIF4E – biochemical, TR-FRET, dose response (AID 855);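 also: potency for disrupting eIF4E binding to eIF4GI seen as loss of FRET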
- Assay type: functional
Active and inactive are the calls of the source.
Could you please pick one outcome from this set? true (1) for active, false (0) for inactive

Incoming: # fetch the recorded call for `CCCCCCCCCCCCCCCC[n+]1ccc(C=NO)cc1` here
Outgoing: true (1)

Incoming: # fetch the recorded call for `Nc1nc2c(s1)CCc1c-2cnn1-c1ccccc1` here
Outgoing: false (0)

Incoming: # fetch the recorded call for `Cc1cc(N2CCOCC2)n2nc(C)c(-c3ccccc3)c2n1` here
Outgoing: false (0)

Incoming: # fetch the recorded call for `Nc1c(C(=O)NCc2cccnc2)sc(=S)n1-c1ccccc1` here
Outgoing: false (0)

Incoming: # fetch the recorded call for `O=C(Nc1ccc2nc(-c3ccco3)c(-c3ccco3)nc2c1)NC1CC1` here
Outgoing: false (0)

---
Incoming: # fetch the recorded call for `O=C(CSc1nnc(-c2ccccc2)n1C1CCCCC1)Nc1ccc(S(=O)(=O)Nc2ccccn2)cc1` here
Outgoing: false (0)

Incoming: # fetch the recorded call for `O=C1CN(C(=O)c2cccs2)c2ccccc2N1` here
Outgoing: false (0)

Incoming: # fetch the recorded call for `CCS(=O)(=O)c1ccc2oc(Nc3ccc(C(C)C)cc3)nc2c1` here
Outgoing: false (0)

Incoming: # fetch the recorded call for `COc1cc(/C=C2\CC/C(=C\c3cc(OC)c(O)c(OC)c3)C2=O)cc(OC)c1O` here
Outgoing: false (0)

Incoming: # fetch the recorded call for `NC(=O)c1c(NC(=O)CSc2nnc(-c3ccco3)n2-c2ccccc2)sc2c1CCC2` here
Outgoing: false (0)

Incoming: # fetch the recorded call for `Sc1nnc(-c2ccco2)n1/N=C/c1ccc(Br)s1` here
Outgoing: false (0)
